system: COLO 205 colon; test: NCI tumour cell line growth inhibition, 48 h
PROPERTY MEASURED: TGI

Reference set (3 entries):
- COC(=O)c1c(C)cccc1C1CN=NC12Cc1c(C)cccc1C2=O (centres undefined): > 100 µM
- COc1cc([N+](=O)[O-])c(S(=O)(=O)O)cc1-n1nc(-c2ccccc2)n[n+]1-c1cc(S(=O)(=O)[O-])c([N+](=O)[O-])cc1OC: > 100 µM
- COC(=O)[C@@H]1C[C@H]2[C@H](c3ccccc3Br)[C@@H](OC(C)=O)[C@@H](OCc3ccccc3)ON2O1: > 100 µM

# input Using the record for NC(N)=N/N=C/c1c(-c2ccc(Cl)c(Cl)c2Cl)nc2sccn12 , report its TGI.
# output 2.73 µM

====

Hi there, I'd appreciate the recorded TGI for every entry that follows.
tested on: LOX IMVI melanoma; experiment: NCI tumour cell line growth inhibition, 48 h

• Cc1occc1C(=S)Nc1ccc(Cl)c(C(=O)OCC2CC2)c1 = > 100 µM

Provide the reported TGI of each entry below, same order.
1. N#CC(C(=N/NC(N)=S)/C(=N\NC(N)=S)C(C#N)c1ccccc1)c1ccccc1 (centres undefined)
2. CCOP(=O)(C/C(=N/NC(C)(C)C)C(=O)Nc1nc2ccc(C)cc2s1)OCC

# output
["> 10 µM", "> 100 µM"]

Provide the reported TGI of each entry below, same order.
1. COc1cc2c(cc1OC)[C@]1(O)C(=O)c3ccc4c(c3O[C@@H]1CO2)C[C@H](C(C)(C)O)O4
2. O=c1[nH]nc2c3n[nH]c(=O)n3c3ccccc3n12
3. CCCN(CCC)C(=O)Cc1c2n(c3ccccc13)CCCc1ccccc1-2
4. Cc1cc2cc(Oc3ccnc(Nc4cccc(CS(=O)(=O)NCCN(C)C)c4)n3)ccc2[nH]1
5. COc1ccc(CNCCCN2C(=O)c3ccc4c5c(ccc(c35)C2=O)C(=O)N(CCCNCCCCNCCCN)C4=O)c(OC)c1OC
6. COC(=O)c1c(C(=O)OC)c(C(=O)OC)c(C(=O)OC)c1C(=O)OC

# output
["> 100 µM", "> 100 µM", "29.1 µM", "15 µM", "7.83 µM", "> 100 µM"]

====

system: SW-620 colon; assay: NCI tumour cell line growth inhibition, 48 h
PROPERTY MEASURED: TGI

Reference set (6 entries):
* CCOC(=O)c1c(N2CCOCC2)[nH]c(=O)c(C(c2ccc(N(C)C)cc2)c2c(O)c(C(=O)OCC)c(N3CCOCC3)[nH]c2=O)c1O | > 100 µM
* O=C1c2ccccc2C(=O)c2[nH]c(=O)c(/C=N/Nc3ccc([N+](=O)[O-])cc3)nc21 | > 45.4 µM
* Cn1c2nc(=Nc3ccc(Cl)cc3)n3ccc4ccccc4c3c2c(=O)n1-c1ccccc1 | > 100 µM
* Nc1nc(N)c2ncn(Cc3c(Cl)cccc3Cl)c2n1 | > 100 µM
* COC(=O)c1c(C(=O)OC)c(C(=O)OC)c(C(=O)OC)c1C(=O)OC | > 100 µM
* Cc1ccc(-c2n[nH]c(CC#N)n2)cc1 | > 100 µM

Provide the reported TGI of each entry below, same order.
1. CCCCCn1ncc(-c2c(O)c(O)cc3c(O)c(-c4c(C)cc5c(-c6cnn(CCCCC)n6)c(O)c(O)cc5c4O)c(C)cc23)n1
2. COc1ccc(CNCCCN2C(=O)c3ccc4c5c(ccc(c35)C2=O)C(=O)N(CCCNCCCCNCCCN)C4=O)c(OC)c1OC
3. Cc1nnc2sc(-c3ccc(N)cc3)nn12

# output
6.26 µM
2.52 µM
> 100 µM

====

system: SK-MEL-2 melanoma; assay: NCI tumour cell line growth inhibition, 48 h; in the data active = GI50 below about 0.43 µM; inactive = the rest
I would appreciate it if you answered using one of these outcomes: YES for active, NO for inactive

# input # lookup: test call for COc1cc2c3c(n(CCCn4cccn4)c(=O)c2cc1OC)-c1cc2c(cc1C3=O)OCO2
# output NO

# input # lookup: test call for CC(=O)OC1C(O)COC(Oc2c(C)c3c4c(c2O)[C@@H](C)CC[C@@H]4[C@@H](C)C[C@H]3C=C(C)C)C1O (some centres undefined)
# output NO

# input # lookup: test call for CC(=O)O[C@H]1CC[C@]2(C)[C@H]3C(=O)C=C4[C@@H]5C[C@](C)(C(=O)N6CCCNCC6)CC[C@]5(C)CC[C@@]4(C)[C@]3(C)CC[C@H]2C1(C)C
# output NO

# input # lookup: test call for C=C(C)[C@@H]1CC[C@]2(c3ncc(C)o3)CC[C@]3(C)[C@H](CC[C@@H]4[C@@](C)(CCC#N)[C@H](C(=C)C)CC[C@]43C)[C@@H]12
# output NO

# input # lookup: test call for CN1CCN(c2ccc3nc(-c4ccc5nc(-c6ccc(C(F)(F)F)cc6)[nH]c5c4)[nH]c3c2)CC1
# output NO

# input # lookup: test call for COc1cc(/C=C\c2cc(/C=C\c3ccc(O)c(OC)c3)n(C(=O)Nc3ccc(C(F)(F)F)cc3)n2)ccc1O
# output NO

====

system: SK-MEL-2 melanoma; assay: NCI tumour cell line growth inhibition, 48 h; in the data active = GI50 below about 0.43 µM; inactive = the rest
I would appreciate it if you answered using one of these outcomes: active, inactive

- CCCCCCCCOC(=O)c1cc(O)c(O)c(O)c1: inactive

# input # lookup: test call for CCOc1ccccc1N=C(NC(=O)CC)SC
# output inactive

# input # lookup: test call for COc1cccc2c1C(=O)c1c(O)c3c(c(O)c1C2=O)C[C@@](O)(C(=O)COC(=O)c1cccnc1)C[C@@H]3OC1CC(N)C(O)C(C)O1 (stereo partly specified)
# output active

====

test system: PC-3 prostate; test: NCI tumour cell line growth inhibition, 48 h
PROPERTY MEASURED: GI50

- C[C@]1(O)CC(=O)[C@]2(O)C3=C(C=C[C@]2(O)C1)C(=O)c1c(O)cccc1C3=O: 2.42 µM
- COc1cc(/C=C\c2cc(/C=C\c3ccc(O)c(OC)c3)n(C(=O)Nc3ccc(C(F)(F)F)cc3)n2)ccc1O: 3.21 µM
- COc1ccc(OC)c(-c2cn3nc(-c4c[nH]c5ccc(Br)cc45)sc3n2)c1: 1.87 µM
- O=C1c2ccccc2C(=O)c2c1c(NCCNCCO)c1cc[nH]c1c2NCCNCCO: 3.22 µM

// switching to the query molecule
# input Using the record for Cc1cc(C)c(S(=O)(=O)Oc2ccccc2[N+](=O)[O-])c(C)c1 , report its GI50.
# output 3.31 µM

====

test system: M14 melanoma; assay: NCI tumour cell line growth inhibition, 48 h
PROPERTY MEASURED: TGI

Reference set (5 entries):
• O=S(=O)(O)c1cc(O)c2c(O)c(N=Nc3ccc(/C=C/c4ccc(N=Nc5c(S(=O)(=O)O)cc6cc(S(=O)(=O)O)cc(O)c6c5O)cc4S(=O)(=O)O)c(S(=O)(=O)O)c3)c(S(=O)(=O)O)cc2c1 = > 100 µM
• CN(C)CCNc1ccc2nnn3c4ccc(Cl)cc4c(=O)c1c23 = 16.7 µM
• C[C@H](C(=O)N1C(=O)O[C@@H](c2ccccc2)[C@H]1C)[C@H](c1ccccc1)N(Cc1ccccc1)OC(=O)c1ccccc1 = > 100 µM
• Cc1occc1C(=S)Nc1ccc(Cl)c(C(=O)OCC2CC2)c1 = > 100 µM
• Nc1nc(SCCC/C=C/B(O)O)nc2c1ncn2C1OC(CO)C(O)C1O (stereo not drawn) = > 243 µM

Provide the reported TGI of each entry below, same order.
1. CC(C)C(OC(=O)c1cc(NC(=S)c2ccccc2)ccc1Cl)C(C)C
2. N#CC1(C#N)C(c2ccccc2)NC23CCCCC2C1(C#N)C(=O)N3 (stereo not drawn)
3. CN([N-]C(=O)CC(=O)[N-]N(C)C(=S)c1ccccc1)C(=S)c1ccccc1.[Cu+2]
4. CC(=O)[CH-]C(=O)c1ccccc1.CC(=O)[CH-]C(=O)c1ccccc1.CC(C)CCCC(C)[C@H]1CCC2[C@@H]3CCC4C[C@@H]([O-])CC[C@]4(C)C3CC[C@@]21C.CC(C)CCCC(C)[C@H]1CCC2[C@@H]3CCC4C[C@@H]([O-])CC[C@]4(C)C3CC[C@@]21C.Cl.[Ti+4] (stereo partly drawn)
5. CCOC(=O)c1c(SCC#N)n(-c2ccccc2)c(=S)n(-c2ccccc2)c1=O
6. Cc1nc(SCC(=O)Nc2ccccc2)c2sc(=S)n(-c3ccccc3)c2n1

# output
> 84.8 µM
> 100 µM
0.172 µM
> 25 µM
> 100 µM
> 10 µM

Provide the reported TGI of each entry below, same order.
1. COc1ccc2c(CCNS(=O)(=O)c3ccccc3)c(C(C)=O)[nH]c2c1[N+](=O)[O-]
2. CCOc1ccccc1N=C(NC(=O)CC)SC

# output
> 100 µM
> 100 µM

Provide the reported TGI of each entry below, same order.
1. CC(C)(C)c1ccc(NC(=O)c2cc(=O)c3ccccc3[nH]2)c(C(C)(C)C)c1O
2. COc1cc2c(c(OC)c1OC)C(=O)c1c-2n(CCCN)c(=O)c2cc([N+](=O)[O-])ccc12
3. C=CCCC12CCCC(=O)C1Sc1ccc3ccccc3c12 (stereo not drawn)
4. C/C(=N/NC(=S)Nc1cccc(Cl)c1)c1cccc(/C(C)=N\NC(=S)Nc2cccc(Cl)c2)n1

# output
1: 13.9 µM; 2: 2.82 µM; 3: 31.1 µM; 4: 7.76 µM

# input Using the record for COc1ccc(/C=C/c2cc(=O)cc(/C=C/c3ccc(OC)c(O)c3)o2)cc1O , report its TGI.
# output 4.45 µM
